Taken from patent US12479850B2.

Documented pIC50 across a set of molecules
Biological target: Axl kinase domain recombinant protein (Homo sapiens, UniProt P30530)
Sequence (P30530 536-807 limits assumed): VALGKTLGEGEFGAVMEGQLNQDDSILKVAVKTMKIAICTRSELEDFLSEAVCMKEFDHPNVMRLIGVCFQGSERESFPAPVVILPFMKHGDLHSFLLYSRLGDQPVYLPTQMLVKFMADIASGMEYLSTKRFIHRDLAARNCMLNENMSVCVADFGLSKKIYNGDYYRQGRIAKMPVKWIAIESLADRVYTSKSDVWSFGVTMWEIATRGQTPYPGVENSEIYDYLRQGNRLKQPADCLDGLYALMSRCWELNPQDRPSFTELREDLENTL
Assay: ELISA kinase activity assay, Axl
pIC50: −log10 of the molar value.

{"columns": ["molecule", "pIC50"],
 "data": [
  ["CC(C)n1cc(C(=O)Nc2ccc(Oc3ccnc4[nH]ccc34)c(F)c2)c(=O)n(-c2ccc(F)cc2)c1=O [No. 41]", "> 8.00"],
  ["Cc1ccc(-n2c(=O)c(C(=O)Nc3ccc(Oc4ccnc(-c5cnn(C)c5)c4)c(F)c3)cn(C(C)C)c2=O)cc1 [No. 15]", "> 8.00"]
]}

# next molecule below
Reported pIC50 for CC(C)n1nc(C(=O)Nc2ccc(Oc3ccnc(-c4cnn(C)c4)c3)cc2)c(=O)n(-c2ccc(F)cc2)c1=O [No. 23] : what is it?
7.00 to 8.00
